Conditions: in n-butanol, 315.65 K
METRIC: solubility (mole fraction)

1. O=C1c2cccc(Cl)c2C(=O)N1c1ccccc1
0.000665

---

Details: in isopropanol, 288.15 K
METRIC: solubility (mole fraction)

1. O=C1c2cccc(Cl)c2C(=O)N1c1ccccc1
7.27e-05

---

Settings: in 1,4-dioxane, 295.65 K
METRIC: solubility (mole fraction)

1. O=C1c2cccc(Cl)c2C(=O)N1c1ccccc1
0.0107

---

Conditions: in ethyl acetate, 308.15 K
METRIC: solubility (mole fraction)

1. O=C1c2cccc(Cl)c2C(=O)N1c1ccccc1
0.00448

---

Conditions: in methanol, 323.15 K
METRIC: solubility (mole fraction)

1. O=C1c2cccc(Cl)c2C(=O)N1c1ccccc1
0.000745

// provenance: BigSolDB 2.1
